test-target: Horseradish Peroxidase (HRP) (Armoracia rusticana, UniProt P00433)
Sequence (P00433 31-353): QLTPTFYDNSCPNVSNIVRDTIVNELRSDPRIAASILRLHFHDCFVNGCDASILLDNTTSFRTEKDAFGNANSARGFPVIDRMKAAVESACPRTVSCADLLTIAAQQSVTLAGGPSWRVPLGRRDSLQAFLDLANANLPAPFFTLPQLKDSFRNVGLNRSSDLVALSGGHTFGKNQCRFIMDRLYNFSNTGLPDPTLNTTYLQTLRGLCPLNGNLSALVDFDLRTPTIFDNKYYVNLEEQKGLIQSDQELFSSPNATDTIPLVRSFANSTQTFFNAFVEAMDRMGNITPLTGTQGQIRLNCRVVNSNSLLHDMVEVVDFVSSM
test-summary: Oxidation of methoxybenzene substrates by horseradish peroxidase (redox potential comparison)
Type: biochemical
reported-conditions: absorbance change at substrate λmax
Here the recorded HRP is given for each entry.
endpoint-label: HRP

molecular-string: COc1cc(OC)c(OC)c(OC)c1
value: 0.30 Δ Abs/(mg enzymemin)
//
molecular-string: COc1ccc(OC)c(OC)c1
value: 1.64 Δ Abs/(mg enzymemin)
//
molecular-string: COc1ccc(OC)cc1
value: 0 Δ Abs/(mg enzymemin)
//
molecular-string: COc1cc(OC)c(OC)c(OC)c1OC
value: 2.50 Δ Abs/(mg enzymemin)
//
molecular-string: COc1c(OC)c(OC)c(OC)c(OC)c1OC
value: 0 Δ Abs/(mg enzymemin)

----------
The following compounds are shown together with reported E1/2 (V) values.
test-summary: Half-wave redox potential of substrates
Format: physicochemical
reported-conditions: redox potential of substrate

molecular-string: COc1ccc(OC)c(OC)c1
E1/2 (V): 1.12 V
//
molecular-string: COc1cc(OC)c(OC)c(OC)c1
E1/2 (V): 1.09 V
//
molecular-string: COc1c(OC)c(OC)c(OC)c(OC)c1OC
E1/2 (V): 1.24 V
//
molecular-string: COc1ccc(OC)cc1
E1/2 (V): 1.34 V
//
molecular-string: COc1cc(OC)c(OC)c(OC)c1OC
E1/2 (V): 1.07 V

----------
test-target: Soybean Peroxidase (SBP) (Glycine max, UniProt O22443)
Sequence (O22443 27-332): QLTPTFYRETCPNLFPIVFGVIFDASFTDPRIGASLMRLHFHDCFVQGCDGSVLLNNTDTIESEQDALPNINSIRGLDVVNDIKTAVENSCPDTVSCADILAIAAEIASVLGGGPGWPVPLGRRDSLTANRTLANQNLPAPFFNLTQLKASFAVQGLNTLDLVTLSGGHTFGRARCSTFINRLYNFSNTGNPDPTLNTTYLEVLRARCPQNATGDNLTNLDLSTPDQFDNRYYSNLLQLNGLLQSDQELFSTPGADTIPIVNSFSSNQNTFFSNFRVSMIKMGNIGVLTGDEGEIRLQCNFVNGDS
test-summary: Oxidation of methoxybenzene substrates by soybean peroxidase (redox potential comparison)
Format: biochemical
reported-conditions: absorbance change at substrate λmax
Description: Any of a variety of peroxidases can be used in the present invention. *all values in Δ Abs/(mg enzymemin). **curve of ΔAbs/time slopes upward as reaction proceeds.
Each record here notes measured SBP.

compound: COc1cc(OC)c(OC)c(OC)c1OC [pentamethoxybenzene]
test-target: Soybean Peroxidase (SBP) (Glycine max, UniProt O22443)
SBP: 8.76 Δ Abs/(mg enzymemin)

compound: COc1c(OC)c(OC)c(OC)c(OC)c1OC [hexamethoxybenzene]
test-target: Soybean Peroxidase (SBP) (Glycine max, UniProt O22443)
SBP: 0.22 Δ Abs/(mg enzymemin)

compound: COc1ccc(OC)cc1 [1,4-dimethoxybenzene]
test-target: Soybean Peroxidase (SBP) (Glycine max, UniProt O22443)
SBP: 0.072 Δ Abs/(mg enzymemin)

compound: COc1ccc(OC)c(OC)c1 [1,2,4-trimethoxybenzene]
test-target: Soybean Peroxidase (SBP) (Glycine max, UniProt O22443)
SBP: 9.23 Δ Abs/(mg enzymemin)

compound: COc1cc(OC)c(OC)c(OC)c1 [1,2,3,5-tetramethoxybenzene]
test-target: Soybean Peroxidase (SBP) (Glycine max, UniProt O22443)
SBP: 3.02 Δ Abs/(mg enzymemin)
